# SYSTEM NAME: Pro-neuregulin-1, membrane-bound isoform (Homo sapiens) (UniProt Q02297)
# Sequence (Q02297 whole entry, looked up, canonical isoform): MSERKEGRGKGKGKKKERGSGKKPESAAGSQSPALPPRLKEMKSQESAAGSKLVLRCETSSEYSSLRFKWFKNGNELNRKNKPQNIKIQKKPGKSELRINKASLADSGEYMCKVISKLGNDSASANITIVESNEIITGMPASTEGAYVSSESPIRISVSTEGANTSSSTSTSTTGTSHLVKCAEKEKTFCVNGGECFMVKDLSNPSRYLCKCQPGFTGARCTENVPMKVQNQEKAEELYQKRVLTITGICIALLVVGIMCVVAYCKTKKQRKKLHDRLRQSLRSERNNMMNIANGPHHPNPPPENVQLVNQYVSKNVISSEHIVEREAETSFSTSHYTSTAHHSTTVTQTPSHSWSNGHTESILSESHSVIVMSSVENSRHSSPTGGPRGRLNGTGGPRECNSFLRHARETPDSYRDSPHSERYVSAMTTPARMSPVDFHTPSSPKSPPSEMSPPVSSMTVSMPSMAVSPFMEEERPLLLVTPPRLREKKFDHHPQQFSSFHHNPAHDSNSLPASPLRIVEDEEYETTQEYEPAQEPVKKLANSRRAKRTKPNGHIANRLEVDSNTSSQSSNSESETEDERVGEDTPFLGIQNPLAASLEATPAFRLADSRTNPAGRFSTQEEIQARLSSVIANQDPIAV
# ASSAY PROCEDURE: small molecules binding neuregulin-1 protein – biochemical, small-molecule microarray, fluorescence 635/667, psychiatric disease protein project, primary screen (AID 1075);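 further: score combines 667 nm spot fluorescence with signal to noise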
# MEASUREMENT PARAMETERS: NRG1 binding, 635 nm fluorescence, higher = more signal
OBSERVABLE: composite z-score
// response body must contain only the number

Data point: C=CCNC(=O)[C@@H]1[C@H]2C(=O)O[C@H](c3ccccc3)[C@H](c3ccccc3)N2[C@H](c2ccc(O)cc2)[C@@]12C(=O)Nc1ccc(C#CCCO)cc12 ; composite z-score = 1.37

Data point: C[C@H]1NC(=O)C([C@@H](C)OCc2ccccc2)NC(=O)[C@@]23C(=O)N[C@@H](Cc4ccccc4)C2[C@H](C)[C@@]2(C)O[C@H]2C3/C=C/CC/C=C/CNC1=O (stereo partly drawn) ; composite z-score = -0.178

Data point: COc1cc2c(cc1OC)CN(C(=O)[C@@H]1[C@H]3C(=O)O[C@H](c4ccccc4)[C@H](c4ccccc4)N3[C@H](c3ccc(OCCO)cc3)[C@@]13C(=O)Nc1ccc(C#CCCO)cc13)CC2 ; composite z-score = 1.58

###

# ASSAY PROCEDURE: viability profiling in MM1S myeloma cells – cell-based, resazurin fluorescence, basal, 24 h, PK04 Diversity Set, profiling panel (AID 1174);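 further: MM1S multiple myeloma cell line; test concentration not given here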
# MEASUREMENT PARAMETERS: higher = more signal, called active from +8 up or from −8 down
Note to self: values exactly at -0.4 are satisfied. So z-score at or above -0.4 is satisfied, below is not satisfied.

# COMPOUND, CATEGORY
rows = [
    ("C[C@@]1([C@@H](NC(=O)c2cccs2)c2ccc(-c3ccccc3)cc2)C[C@H]1C1CCCCC1", "satisfied"),
    ("CN1C(=O)C2C=CC(C(O)c3ccc(F)cc3)N(N3CCCCC3)C2C1=O (configuration not stated)", "not satisfied"),
    ("NC(=O)NCC#Cc1ccc2c(c1)[C@]1(C(=O)N2)[C@H](c2ccc(OCCO)cc2)N2[C@H](c3ccccc3)[C@H](c3ccccc3)OC(=O)[C@H]2[C@@H]1C(=O)N1CCCCCCC1", "not satisfied"),
    ("Cc1ccccc1C(O)C1C=CC2C(=O)N(Cc3ccccc3)C(=O)C2N1n1cnnc1 (configuration not stated)", "not satisfied"),
    ("COC(=O)[C@@]1(Cc2ccccc2)[C@H]2c3cc(C(=O)N4CCCC4)n(Cc4ccccc4)c3C[C@H]2CN1C(=O)c1ccccc1", "not satisfied"),
]

Does z-score meet or surpass -0.4 for CC(C)C[C@H]1NC(=O)[C@H](C)NC(=O)[C@@]23C(=O)N[C@@H](Cc4ccccc4)C2[C@H](C)[C@@]2(C)O[C@H]2C3/C=C/C/C=C\CNC1=O (some centres not stated) ?
satisfied

###

# ASSAY PROCEDURE: JC-1 mitochondrial signal, unstimulated HepG2 cells – cell-based, JC-1 fluorescence, 24 h, 100 nL compound, profiling panel (AID 1167); further: test concentration not given here
# MEASUREMENT PARAMETERS: HepG2 mitochondrial potential, higher = more signal
OBSERVABLE: z-score
// response body must contain only the number

# COMPOUND, z-score
rows = [
    ("C=C(COC)C(=O)CC[C@H](OC(=O)c1ccccc1-c1ccccc1C(=O)O)c1ccc(CO)o1", -1.01),
    ("COc1ccc(CCNC(=O)[C@@H]2c3ccccc3C(=O)N(Cc3ccccc3C(F)(F)F)[C@H]2c2ccc(CO)cc2)cc1", 1.2),
    ("C[N+](C)(C)CCCCCCNC(=O)[C@@H]1C[C@@H]2C(=O)NCC(=O)N2[C@@H]1c1cccc(OCCO)c1", -0.844),
]

Data point: CN1C(=O)C2C=CC(C(O)COCc3ccccc3)N(Nc3ccccc3)C2C1=O (centres undefined) ; z-score = -1.05

###

# ASSAY PROCEDURE: growth effects on S. cerevisiae YJM789 – YJM789 clinical isolate, OD600, 24 h, basal, primary screen (AID 1089);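 further: growth of clinical yeast isolate S. cerevisiae YJM 789 seeded 1000 cells per well; test concentration not given here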
# MEASUREMENT PARAMETERS: higher = more signal, called active from +8 up or from −8 down
OBSERVABLE: z-score
// response body must contain only the number

Some solved entries appear below for comparison.
# COMPOUND, OBSERVABLE, MEASURED RESULT
measured = [
    ("O=C1O[C@@H](c2ccccc2)[C@@H](c2ccccc2)N2[C@@H](c3ccc(O)cc3)[C@]3(C(=O)Nc4ccc(C#CC5(O)CCCCCC5)cc43)[C@@H](C(=O)N3CCN(c4ncccn4)CC3)[C@H]12", "z-score", 0.979),
    ("CC(C)NC(=O)[C@@]1(Cc2ccccc2I)c2ccccc2C(=O)N(Cc2ccccc2C(F)(F)F)[C@H]1c1ccc(CO)cc1", "z-score", -0.442),
    ("O=c1c2ccc(Br)cc2nc(-c2ccccc2)n1Cc1cccc(O)c1", "z-score", -1.52),
    ("COc1ccc(C(=O)Nc2ccc(CN3C(=O)[C@@]4(O[C@@H](CC(=O)N5Cc6ccccc6C[C@H]5CO)[C@H]([Si](C)(C)c5ccc(OC)cc5)[C@H]4C)c4ccccc43)cc2)cc1", "z-score", -1.8),
    ("CCCNC(=O)[C@@H]1c2ccccc2C(=O)N(CC23CC4CC(CC(C4)C2)C3)[C@H]1c1ccc(CO)cc1", "z-score", -0.449),
    ("CN(C)CCCCNC(=O)[C@H]1C[C@H]2C(=O)N[C@@H](CCCC[N+](C)(C)C)C(=O)N2[C@H]1c1cccc(OCCO)c1", "z-score", -0.359),
]

Data point: COC(=O)[C@]1(Cc2ccccc2N=[N+]=[N-])N=C(c2ccc(OCCCO)cc2)O[C@@H]1c1ccccc1 ; z-score = 0.537

Data point: CC(C)(C)OC(=O)CC[C@]1(C(=O)N2CCCCC2)N=C(c2ccc(OCCCO)cc2)O[C@H]1c1ccccc1CN=[N+]=[N-] ; z-score = -4.42

Data point: COC(=O)c1ccc(OC)c(/C=C\CC(CCc2ccccc2)OC(=O)c2ccncc2)c1 (stereo not given) ; z-score = -0.272

Data point: CCOC(=O)C[C@H]1[C@H](OC(=O)c2ccc(C(=O)c3ccccc3)cc2)[C@@H](NC(=O)C2CCCCC2)c2cc(OCCCO)ccc2N1C(=O)Cc1ccc(OC)cc1 ; z-score = -0.989

Data point: CC1CC/C=C\[C@H]2OC34C=CCN(c5ccc(Cl)cc5)C(=O)[C@H]3N(C(CO)C(C)C)C(=O)[C@]4(C)C2C(=O)O1 (stereo not given in full) ; z-score = 1.04

Data point: COC(=O)[C@@]1(Cc2ccc(OC)cc2)[C@H]2c3cc(C(=O)N(C)C)n(Cc4cc(F)c(F)c(F)c4)c3C[C@H]2CN1C(=O)c1ccccc1 ; z-score = 0.725

Data point: COCC(=C=CC[C@@H](O)c1ccccc1OCCO)C[C@@H](O)c1ccccn1 ; z-score = -0.108

Data point: CCOC(=O)C[C@H]1[C@H](OC(=O)c2ccccc2-c2ccccc2)[C@@H](NC(=O)c2ccccc2)c2cc(OCCCO)ccc2N1C(=O)Cc1ccc(OC)cc1 ; z-score = -0.211

Data point: COC(=O)c1ccc(OC)c(/C=C\CC(CCc2ccccc2)OC(C)=O)c1 (stereo not given) ; z-score = -0.714

###

composite z-score overview
# SYSTEM NAME: Torsin-1A (Homo sapiens) (UniProt O14656)
# Sequence (O14656 whole entry, looked up): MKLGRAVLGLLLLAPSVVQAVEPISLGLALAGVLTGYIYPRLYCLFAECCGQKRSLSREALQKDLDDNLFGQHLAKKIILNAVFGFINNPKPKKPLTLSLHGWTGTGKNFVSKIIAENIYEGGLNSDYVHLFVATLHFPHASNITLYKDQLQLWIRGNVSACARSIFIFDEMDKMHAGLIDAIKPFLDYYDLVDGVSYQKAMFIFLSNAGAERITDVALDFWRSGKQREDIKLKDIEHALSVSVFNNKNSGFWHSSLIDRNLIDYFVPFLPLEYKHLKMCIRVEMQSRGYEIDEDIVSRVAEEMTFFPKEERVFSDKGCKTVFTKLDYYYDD
# ASSAY PROCEDURE: torsin A mutant lysate binding on microarrays – cell lysate, small-molecule microarray, COS7 lysate, 635/667 nm fluorescence, primary screen (AID 1150);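 further: score pools 667 nm emission and signal to noise measuring lysate protein binding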
# MEASUREMENT PARAMETERS: COS7 hTOR1A mutant lysate, 635 nm fluorescence, higher = more signal
// response body must contain only the number

# MOLECULE, SYSTEM NAME, composite z-score
data = [
    ("N#Cc1ccc(NN2C(C(O)c3ccco3)C=CC3C(=O)N(c4ccccc4)C(=O)C32)cc1 (configuration not stated)", "Torsin-1A (Homo sapiens) (UniProt O14656)", -0.236),
    ("CC(=O)NCCCC[C@@H]1NC(=O)[C@@H]2C[C@H](C(=O)NCCCC[N+](C)(C)C)[C@H](c3cccc(OCCO)c3)N2C1=O", "Torsin-1A (Homo sapiens) (UniProt O14656)", 1.83),
    ("CC(C)[Si](C#C[Si](C(C)C)(C(C)C)C(C)C)(O[C@H](C)c1cn(Cc2cccc(Cl)c2)nn1)C(C)C", "Torsin-1A (Homo sapiens) (UniProt O14656)", 0.262),
    ("CCCC=C(CCC)[C@@H](NC(=O)Cc1ccccc1)c1ccc(C(=O)OC)cc1", "Torsin-1A (Homo sapiens) (UniProt O14656)", -0.414),
    ("C=CCN1C(=O)[C@@]2(O[C@@H](CCn3cc([C@H](O)c4ccccc4)nn3)[C@H]([Si](C)(C)c3ccc(OC)cc3)[C@H]2C)c2cc(NC(=O)c3ccc(OC)cc3)ccc21", "Torsin-1A (Homo sapiens) (UniProt O14656)", -0.0819),
    ("COc1cc(C(O)C2C=CC3C(=O)NC(=O)C3N2Nc2ccc(Cl)cc2Cl)cc(OC)c1OC (configuration not stated)", "Torsin-1A (Homo sapiens) (UniProt O14656)", 0.81),
]

Turning now to a further record.
Data point: CC(C)CCC[C@@H](C)[C@H]1CC[C@@]2(C)C3=C(CC[C@]12C)[C@@]1(C)CC[C@H](OC(=O)c2ccc(N)cc2)C(C)(C)C1CC3 (some centres not stated) ; composite z-score = 0.273
